# Test summary: MTT and LDH cell death assay
# Condition info: human
Experimental endpoint: viability at 4 h, 100 μM

[ask] Consider the compound shown here: Oc1ccc(C=Cc2cc(O)cc(O)c2)cc1 [resveratrol, 3,5, 4′-trihydroxystilbene] What is its recorded viability at 4 h, 100 μM?
[reply] > 90%

###

# Test target: purified human 20S proteasome (X, Y and Z), CT-like activity (Homo sapiens, UniProt P28074)
Experimental endpoint: IC50 (µM)
Entry rule: numbers only, all in µM.

[ask] Consider the compound shown here: Oc1ccc(C=Cc2cc(O)cc(O)c2)cc1 [resveratrol, 3,5, 4′-trihydroxystilbene] What is its recorded IC50?
[reply] 59.4

###

# System: CT-like proteasome activity in THP1 cells
# Test summary: Cell-based proteasome activity, luminescence assay
# Design: species or system human
# Condition info: read-out: IC50, CT-like activity (cellular), 30 min incubation
Experimental endpoint: IC50 (nM)
Entry rule: numbers only, all in nM.

[ask] Consider the molecule shown here: Oc1ccc(C=Cc2cc(O)cc(O)c2)cc1 [resveratrol, 3,5, 4′-trihydroxystilbene] What is its recorded IC50?
[reply] 1900

###

# Tested on: T-like proteasome activity in THP1 cells
# Test summary: Cell-based proteasome activity, luminescence assay
# Design: species or system human
# Condition info: read-out: IC50, T-like activity (cellular), 30 min incubation
Experimental endpoint: pIC50
Keep in mind that pIC50 stands for -log10 of concentration in molar terms.

[ask] Consider the compound shown here: Oc1ccc(C=Cc2cc(O)cc(O)c2)cc1 [resveratrol, 3,5, 4′-trihydroxystilbene] What is its recorded pIC50?
[reply] 5.30

###

# Test target: purified human 20S immunoproteasome (LMP7, LMP2 and LMP10), CT-like activity (Homo sapiens)
Experimental endpoint: pIC50
Keep in mind that pIC50 stands for -log10 of concentration in molar terms.

[ask] Consider the compound shown here: Oc1ccc(C=Cc2cc(O)cc(O)c2)cc1 [resveratrol, 3,5, 4′-trihydroxystilbene] What is its recorded pIC50?
[reply] 4.40
